Hey, just so you know, these numbers are from patent US20150368338A1.

Reported Kd values are given for each entry in this list.
# TEST_TARGET: T1, IFN-αF (human, UniProt P01568 24-189)
# T1 construct: also called IFN-α21; alpha F
# T1 chain: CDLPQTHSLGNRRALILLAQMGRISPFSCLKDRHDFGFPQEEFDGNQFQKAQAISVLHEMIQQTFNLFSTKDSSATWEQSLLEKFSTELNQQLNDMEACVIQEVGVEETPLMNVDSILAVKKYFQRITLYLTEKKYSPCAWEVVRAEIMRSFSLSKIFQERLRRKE
# TEST_PROTOCOL: ProteOn, one antigen concentration
Quick reminder: number only, in nM, skip the unit.

Some binders with known Kd results, for comparison:
BINDER	EXPERIMENTAL_RESULT
IFWM3348 (antibody, V domains shown, VH IFWH624, VL IFWL1006; converted mAb; also called IFWB3083) VH: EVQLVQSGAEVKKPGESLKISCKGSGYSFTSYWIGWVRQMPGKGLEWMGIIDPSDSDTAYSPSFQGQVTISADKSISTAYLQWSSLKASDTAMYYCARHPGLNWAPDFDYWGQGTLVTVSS VL: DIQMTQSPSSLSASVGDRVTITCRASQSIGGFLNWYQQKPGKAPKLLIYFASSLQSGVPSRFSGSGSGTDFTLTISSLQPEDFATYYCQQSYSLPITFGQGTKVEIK	0.064
IFWM3351 (antibody, V domains shown, VH IFWH624, VL IFWL1010; converted mAb; also called IFWB3086) VH: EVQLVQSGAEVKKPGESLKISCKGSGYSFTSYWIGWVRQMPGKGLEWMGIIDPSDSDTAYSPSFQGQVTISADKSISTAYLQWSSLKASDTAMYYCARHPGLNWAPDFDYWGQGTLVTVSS VL: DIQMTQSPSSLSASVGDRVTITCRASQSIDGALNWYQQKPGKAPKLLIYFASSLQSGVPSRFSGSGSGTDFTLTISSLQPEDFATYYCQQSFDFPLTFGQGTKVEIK	0.053

Let us move to another entry and its Kd.
Tell me the measured Kd of IFWM3302 (antibody, V domains shown, VH IFWH591, VL IFWL991; converted mAb; also called IFWB3037) VH: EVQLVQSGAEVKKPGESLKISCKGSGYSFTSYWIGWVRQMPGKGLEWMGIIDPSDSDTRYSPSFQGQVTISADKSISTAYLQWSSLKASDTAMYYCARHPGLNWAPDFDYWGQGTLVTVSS VL: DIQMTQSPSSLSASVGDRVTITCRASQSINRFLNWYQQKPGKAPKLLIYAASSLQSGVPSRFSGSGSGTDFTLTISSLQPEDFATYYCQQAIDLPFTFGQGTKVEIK , please.
0.072
